Data provenance: paper PMC8705538

Each record here notes measured Percent inhibition at 100 μM, nsp16.
biological target: SARS-CoV-2 nsp16/nsp10 (Severe acute respiratory syndrome coronavirus 2); experiment: biochemical; settings: 100 μM

compound: Cc1ccc(Oc2ncccc2CNC(=O)c2cnc(O)cc2O)cn1
target or system: SARS-CoV-2 nsp16/nsp10 (Severe acute respiratory syndrome coronavirus 2)
units: %
Percent inhibition at 100 μM, nsp16: 39
--
compound: O=C(Nc1ccc(N2CCOCC2)cc1)c1oc2ccccc2c1CSc1nnc[nH]1
target or system: SARS-CoV-2 nsp16/nsp10 (Severe acute respiratory syndrome coronavirus 2)
units: %
Percent inhibition at 100 μM, nsp16: 6
--
compound: CC(=O)N1N=C(c2ccc3c(c2)OCO3)OC1c1cc(-c2ccccc2)nc2ccccc12 (stereo not drawn)
target or system: SARS-CoV-2 nsp16/nsp10 (Severe acute respiratory syndrome coronavirus 2)
units: %
Percent inhibition at 100 μM, nsp16: 36
--
compound: Cc1nc(CC(=O)N2CCCC(c3nc4ccccc4s3)C2)cs1 (stereo not drawn)
target or system: SARS-CoV-2 nsp16/nsp10 (Severe acute respiratory syndrome coronavirus 2)
units: %
Percent inhibition at 100 μM, nsp16: 28
--
compound: Cn1c(=O)c(=O)n(CC(=O)NCCN(CCc2ccccc2)Cc2ccco2)c2ccccc21
target or system: SARS-CoV-2 nsp16/nsp10 (Severe acute respiratory syndrome coronavirus 2)
units: %
Percent inhibition at 100 μM, nsp16: 7
--
compound: O=C(Cc1ccc2c(c1)CCO2)Nc1ccc2nc[nH]c(=O)c2c1
target or system: SARS-CoV-2 nsp16/nsp10 (Severe acute respiratory syndrome coronavirus 2)
units: %
Percent inhibition at 100 μM, nsp16: -6
--
compound: O=C(CCc1c[nH]c2ccccc12)N1CCCC1c1ccc[nH]1 (stereo not drawn)
target or system: SARS-CoV-2 nsp16/nsp10 (Severe acute respiratory syndrome coronavirus 2)
units: %
Percent inhibition at 100 μM, nsp16: -10
--
compound: NC(=O)Cn1cnc2c(cnn2CCO)c1=O
target or system: SARS-CoV-2 nsp16/nsp10 (Severe acute respiratory syndrome coronavirus 2)
units: %
Percent inhibition at 100 μM, nsp16: 6
--
compound: O=C(CCc1n[nH]c2c1CCCC2)NCc1cc(O)ncn1
target or system: SARS-CoV-2 nsp16/nsp10 (Severe acute respiratory syndrome coronavirus 2)
units: %
Percent inhibition at 100 μM, nsp16: -24
--
compound: O=C(CSc1nc(CC(=O)Nc2cccc3nsnc23)cs1)Nc1ccc(F)cc1
target or system: SARS-CoV-2 nsp16/nsp10 (Severe acute respiratory syndrome coronavirus 2)
units: %
Percent inhibition at 100 μM, nsp16: 45
--
compound: O=C(CCCn1cncn1)N1CCCC(c2nc3ccccc3s2)C1 (stereo not drawn)
target or system: SARS-CoV-2 nsp16/nsp10 (Severe acute respiratory syndrome coronavirus 2)
units: %
Percent inhibition at 100 μM, nsp16: -29
--
compound: O=C(Cc1nnc(O)c2ccccc12)NCC(O)c1ccccc1 (stereo not drawn)
target or system: SARS-CoV-2 nsp16/nsp10 (Severe acute respiratory syndrome coronavirus 2)
units: %
Percent inhibition at 100 μM, nsp16: 2
--
compound: Cc1ccccc1NC(=O)c1nnn2c1NC(C(=O)O)=CC2c1ccc(C(=O)O)cc1 (stereo not drawn)
target or system: SARS-CoV-2 nsp16/nsp10 (Severe acute respiratory syndrome coronavirus 2)
units: %
Percent inhibition at 100 μM, nsp16: 33
--
compound: O=C(CCc1ccc(O)cc1)NC(c1ccc2c(c1)CCO2)C1CC(O)C1 (stereo not drawn)
target or system: SARS-CoV-2 nsp16/nsp10 (Severe acute respiratory syndrome coronavirus 2)
units: %
Percent inhibition at 100 μM, nsp16: 10
--
compound: Cc1cc(-c2ccc(C(=O)NCC(N)=O)cc2)nc(N2CCOCC2)n1
target or system: SARS-CoV-2 nsp16/nsp10 (Severe acute respiratory syndrome coronavirus 2)
units: %
Percent inhibition at 100 μM, nsp16: 17
--
compound: NC1=NC(c2ccccc2)n2c(nc(=O)c3ccccc32)N1 (stereo not drawn)
target or system: SARS-CoV-2 nsp16/nsp10 (Severe acute respiratory syndrome coronavirus 2)
units: %
Percent inhibition at 100 μM, nsp16: 39
--
compound: O=C(CCc1ccncc1)NC(c1ccccc1)C1CC(O)C1 (stereo not drawn)
target or system: SARS-CoV-2 nsp16/nsp10 (Severe acute respiratory syndrome coronavirus 2)
units: %
Percent inhibition at 100 μM, nsp16: 36
--
compound: CC(=O)Nc1ccn(C2OC(CO)C(O)C2O)c(=O)n1 (stereo not drawn)
target or system: SARS-CoV-2 nsp16/nsp10 (Severe acute respiratory syndrome coronavirus 2)
units: %
Percent inhibition at 100 μM, nsp16: -9

###

Each record here notes measured Percent inhibition at 100 μM, nsp14.
target: SARS-CoV-2 nsp14 (Severe acute respiratory syndrome coronavirus 2); assay: biochemical; details: 100 μM
experimental readout: Percent inhibition at 100 μM, nsp14 (%)

molecule: COc1cc(NC(=O)C2CCN(Cc3nc(-c4cccc(C)c4)no3)CC2)c(OC)cc1Cl [ZINC000030974583]
target or system: SARS-CoV-2 nsp14 (Severe acute respiratory syndrome coronavirus 2)
observed result: 19
--
molecule: COc1ccc(N2C(=O)CC(c3c(C)[nH]n(-c4nc5ccccc5s4)c3=O)C2=O)cc1 (stereo not shown) [ZINC000018085229]
target or system: SARS-CoV-2 nsp14 (Severe acute respiratory syndrome coronavirus 2)
observed result: 11
--
molecule: Cn1nccc1CCC(=O)N1CCCC(c2nc3ccccc3s2)C1 (stereo not shown) [Compound 042-575-680]
target or system: SARS-CoV-2 nsp14 (Severe acute respiratory syndrome coronavirus 2)
observed result: 8
--
molecule: O=C(O)c1cc(CN2CC[C@@H](c3ccc4ccccc4c3)[C@H](O)C2)ccc1O [ZINC000065452571]
target or system: SARS-CoV-2 nsp14 (Severe acute respiratory syndrome coronavirus 2)
observed result: -3
--
molecule: Nc1ncnc2c1ncn2CC(O)CO (stereo not shown) [ZINC000000370772]
target or system: SARS-CoV-2 nsp14 (Severe acute respiratory syndrome coronavirus 2)
observed result: -9
--
molecule: Cc1nn(C)c2ncc(NC(=O)c3ccccc3-c3ncc(-c4ccc(F)cc4)o3)cc12 [ZINC000032754717]
target or system: SARS-CoV-2 nsp14 (Severe acute respiratory syndrome coronavirus 2)
observed result: 14
--
molecule: CC(C)N(CC1OC(n2cnc3c(N)ncnc32)C(O)C1O)C1CC(CCc2nc3cc(C(C)(C)C)ccc3[nH]2)C1 (stereo not shown) [ZINC000100074350]
target or system: SARS-CoV-2 nsp14 (Severe acute respiratory syndrome coronavirus 2)
observed result: 30
--
molecule: Nc1ncnc2c1ncn2[C@@H]1O[C@H](C(=O)NC2CC2)[C@@H](O)[C@H]1O [ZINC000004475116]
target or system: SARS-CoV-2 nsp14 (Severe acute respiratory syndrome coronavirus 2)
observed result: 32
--
molecule: Cc1ccccc1NC(=O)c1nnn2c1NC(C(=O)O)=CC2c1ccc(C(=O)O)cc1 (stereo not shown) [ZINC000072333096]
target or system: SARS-CoV-2 nsp14 (Severe acute respiratory syndrome coronavirus 2)
observed result: 25
--
molecule: O=C(Cn1ccc(=O)c2ccccc21)NCCSc1cnn[nH]1 [ZINC000218615582]
target or system: SARS-CoV-2 nsp14 (Severe acute respiratory syndrome coronavirus 2)
observed result: 21
--
molecule: O=C(Nc1ccccc1-c1ccccc1)C1CCCN(c2ccc(-n3cncn3)nn2)C1 (stereo not shown) [ZINC000096124096]
target or system: SARS-CoV-2 nsp14 (Severe acute respiratory syndrome coronavirus 2)
observed result: 9
--
molecule: COc1ccc(CCNC(=O)C2C3C=CC4(CN(c5ccc6c(c5)OCO6)C(=O)C24)O3)cc1 (stereo not shown) [ZINC000012895535]
target or system: SARS-CoV-2 nsp14 (Severe acute respiratory syndrome coronavirus 2)
observed result: 5
--
molecule: Cn1nc(CC(=O)NCCCc2nnc3ccccn23)c2ccccc2c1=O [ZINC000095478169]
target or system: SARS-CoV-2 nsp14 (Severe acute respiratory syndrome coronavirus 2)
observed result: -6
--
molecule: CN(Cc1cccc2cnccc12)C(=O)CCC1(CCC(=O)O)CCC(=O)N1 (stereo not shown) [ZINC000220483024]
target or system: SARS-CoV-2 nsp14 (Severe acute respiratory syndrome coronavirus 2)
observed result: -5
--
molecule: O=C(CCc1cncnc1)N1CCCC(c2nc3ccccc3s2)C1 (stereo not shown) [Compound 046-723-388]
target or system: SARS-CoV-2 nsp14 (Severe acute respiratory syndrome coronavirus 2)
observed result: 5
--
molecule: CC(=O)N1N=C(c2ccc3c(c2)OCO3)OC1c1cc(-c2ccccc2)nc2ccccc12 (stereo not shown) [ZINC000021941344]
target or system: SARS-CoV-2 nsp14 (Severe acute respiratory syndrome coronavirus 2)
observed result: 12

###

target: SARS-CoV-2 nsp14 (Severe acute respiratory syndrome coronavirus 2); experiment: biochemical; conditions: HTRF, SAM 10 µM, GpppG 4 µM; read-out: IC50 nsp14
pIC50: −log10 of the molar value.
Each record here notes measured pIC50.

record smiles: CCNC(=O)NCCSC[C@H]1O[C@@H](n2cnc3c(N)ncnc32)[C@H](O)[C@@H]1O
pIC50: 5.51

record smiles: Cc1ccc(S(=O)(=O)OC[C@H]2O[C@@H](n3cnc4c(N)ncnc43)[C@H](O)[C@@H]2O)cc1
pIC50: 5.82

record smiles: Nc1ncnc2c1ncn2[C@@H]1O[C@H](C(=O)N2CCN(CC(=O)Nc3cccc4c3CNC4=O)CC2)[C@@H](O)[C@H]1O
pIC50: 4.12

record smiles: Nc1ncnc2c1ncn2[C@@H]1O[C@H](COC(=O)c2ccc(S(=O)(=O)F)cc2)[C@@H](O)[C@H]1O
pIC50: 4.28

record smiles: CSC[C@H]1O[C@@H](n2cnc3c(N)ncnc32)[C@H](O)[C@@H]1O
pIC50: 5.85
